- assay remarks: Liver microsome stability, mouse
- Assay type: in vitro ADME
- protocol conditions: 1 uM compound, mouse liver microsomes 0.5 mg/ml; read-out: Liver Microsomes (t1/2, minutes) Mouse
measure name: half-life at 1 uM (min)

INSERT INTO measurements (smiles, measure_name, assay_value) VALUES
  ('O=C(CCCCCc1ccccc1)NC1CCOCC1', 'half-life at 1 uM', 112);

###

- assay remarks: Plasma protein binding by equilibrium dialysis, mouse
- Assay type: in vitro ADME
- protocol conditions: read-out: Plasma Protein Binding (Bound %) Mouse (converted)
measure name: fraction unbound

INSERT INTO assay_data (compound, measure_name, assay_value) VALUES
  ('O=C(N[C@H]1CC[C@H](O)CC1)C1CCC(CCCc2ccccc2)C1 (stereo partly shown) [15 (Exp.)]', 'fraction unbound', 0.012);
